Cited source: the DeepSol protein solubility set

# ASSAY_TEXT: soluble on expression in E. coli; label from the status in PepcDB or PDB records

- BIOSEQUENCE: "MGHHHHHHSHMSVHKLTDLRDNSTNWKINVKILSIWNHPPNSHGEITTMILHDDKNNRVDATIPQGNYHNPFCPFLKPGTWIHISDFRVVVPQSRVRYSSFRFHIKFIWETSVHPLPELVKRDFFD"
  soluble on expression in E. coli: "not soluble"
- BIOSEQUENCE: "MGSDKIHHHHHHMTPTYDTLIIGAGIAGASLGYRLAGQQRVLLVERESQPGYHSTGRSAAMFMEAYGTPQIQALTRASRAFYEAPPQGFCEHPLLEPRGCLYVASLEQRELLEQTFAQNLANGTEVTLLDRDAALALIPSLRGETLAGAVLEPGAMDLDVHALHQGFLRGYRTAGGELRCNAELIQACYLDDVWQVELADGSRLQARCLVNAAGAWADRVAEQCGVARIGLQPCRRSAFTFPGPAEQDFTRWPAVIGVDESFYFKPDAGQLLGSPANADPVEPQDAAPEEFDVALGIYNIEAMTTLAIRRPSHTWAGLRSFVADGDLVIGFDAHAPAFFWLAAQGGYGIQSAAGASRLAADLLLGQPLCASLVSQGVAPERLSPARFQQP"
  soluble on expression in E. coli: "not soluble"
